Ki, MOR (Rattus norvegicus), per-entry values.

COMPOUND | Ki
CO[C@@]12CCC(N[C@@H](CCC(=O)O)C(=O)O)[C@@H]3Oc4c(O)ccc5c4[C@@]31CCN(C)[C@@H]2C5 (stereo in doubt) [Compound 14a] | 1.45 nM
CO[C@@]12CC[C@@H](N[C@@H](CCCCN)C(=O)O)[C@@H]3Oc4c(O)ccc5c4[C@@]31CCN(C)[C@@H]2C5 | 0.53 nM
CO[C@@]12CC[C@@H](N[C@@H](CC(=O)O)C(=O)O)[C@@H]3Oc4c(O)ccc5c4[C@@]31CCN(C)[C@@H]2C5 [Compound 13b] | 3.42 nM
CO[C@@]12CC[C@@H](N[C@@H](Cc3ccc(O)cc3)C(=O)O)[C@@H]3Oc4c(O)ccc5c4[C@@]31CCN(C)[C@@H]2C5.Cl.Cl | 3.2 nM
CO[C@@]12CC[C@H](N[C@@H](C(=O)O)C(C)C)[C@@H]3Oc4c(O)ccc5c4[C@@]31CCN(C)[C@@H]2C5 [Compound 16a] | 1.7 nM
CO[C@@]12CC[C@H](N[C@@H](Cc3ccc(O)cc3)C(=O)O)[C@@H]3Oc4c(O)ccc5c4[C@@]31CCN(C)[C@@H]2C5.Cl.Cl | 0.83 nM
CC[C@H](N[C@@H]1CC[C@@]2(OC)[C@H]3Cc4ccc(O)c5c4[C@@]2(CCN3C)[C@H]1O5)C(=O)O [Compound 19b] | 1.83 nM
CO[C@@]12CC[C@@H](N[C@H](C(=O)O)C(C)C)[C@@H]3Oc4c(O)ccc5c4[C@@]31CCN(C)[C@@H]2C5 | 3.04 nM
CO[C@@]12CC[C@@H](NCCCC(=O)O)[C@@H]3Oc4c(O)ccc5c4[C@@]31CCN(C)[C@@H]2C5 [Compound 21b] | 1.41 nM
CO[C@@]12CC[C@H](N[C@H](Cc3ccccc3)C(=O)O)[C@@H]3Oc4c(O)ccc5c4[C@@]31CCN(C)[C@@H]2C5 [Compound 17a] | 0.61 nM

###

Target: MOR (Homo sapiens, UniProt P35372)
Construct: host or cells: CHO (CHO-hMOR)
Sequence (P35372 whole entry): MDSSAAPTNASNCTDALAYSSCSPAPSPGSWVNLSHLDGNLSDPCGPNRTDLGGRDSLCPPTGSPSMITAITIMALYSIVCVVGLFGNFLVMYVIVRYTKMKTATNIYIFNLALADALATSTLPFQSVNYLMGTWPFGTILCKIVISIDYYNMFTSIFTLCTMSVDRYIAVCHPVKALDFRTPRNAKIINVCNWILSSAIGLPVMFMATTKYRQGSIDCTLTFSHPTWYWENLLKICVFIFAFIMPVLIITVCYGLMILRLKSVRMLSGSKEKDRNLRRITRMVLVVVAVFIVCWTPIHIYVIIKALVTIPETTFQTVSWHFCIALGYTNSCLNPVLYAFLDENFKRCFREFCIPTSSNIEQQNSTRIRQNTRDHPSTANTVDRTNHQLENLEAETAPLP
Assay: [35S]GTPγS binding assay, CHO-hMOR membranes
Type: biochemical
Settings: relative to reference full agonist DAMGO; read-out: MOR % stim.
Emax values by entry
MEASUREMENT_KIND: Emax (%)

MOLECULE | MEASUREMENT_TARGET | ENDPOINT_VALUE
CO[C@@]12CC[C@@H](NCC(=O)NCC(=O)O)[C@@H]3Oc4c(O)ccc5c4[C@@]31CCN(C)[C@@H]2C5 [Compound 23a] | MOR (Homo sapiens, UniProt P35372) | 85
CO[C@@]12CC[C@H](NCCCC(=O)O)[C@@H]3Oc4c(O)ccc5c4[C@@]31CCN(C)[C@@H]2C5 [Compound 21a] | MOR (Homo sapiens, UniProt P35372) | 103
CO[C@@]12CC[C@@H](NC(C)C(=O)O)[C@@H]3Oc4c(O)ccc5c4[C@@]31CCN(C)[C@@H]2C5 (stereo in doubt) [Compound 15b] | MOR (Homo sapiens, UniProt P35372) | 102
